Test: folding stability dG unfold (combined trypsin and chymotrypsin); higher = more stable
Outcome Measure: folding stability dG unfold

In [3]: df
Out[3]:
                              sequence_text  recorded_result
0  SAGGSAGGSAGGIKPGDKVRIMQMDKNGEMRGPVEIDNVEDGKITIKLPPPYRIMIQPYSAGGSAGGSAGGS [r10_1257_TrROS]    < -1 kcal/mol
1  SGMTTSLGKSTTTTLPDGTTVKTEVKLTRPSSGTVVVTTDTTTVTPGTGTTTTTPTTTVVPVPPGVPGLLSA [r9_709_JUSTAS]    < -1 kcal/mol
2  SAGGSAGGSAGGELVLPELNKPLNVEKEEVVVEGGEEVVKIKATGSGKPFEYVVPKGLGSAGGSAGGSAGGS [r10_517_JUSTAS]    < -1 kcal/mol
